# Assay Method Text: physchem
# Test Parameters: buffer, pH 7.4
Quantity: logD
Number, no unit, nothing else.

Example results:
Request: Looking for the measured logD of `CC(C)c1cc(C(=O)N2Cc3ccc(CN(C)C)cc3C2)c(O)cc1O` , can you help?
Response: 2.1

Request: Looking for the measured logD of `CC(C)c1cc(C(=O)N2Cc3ccc(CN4CCOCC4)cc3C2)c(O)cc1O` , can you help?
Response: 3.3

Request: Looking for the measured logD of `CC(C)c1cc(C(=O)N2Cc3ccc(OCCCN)cc3C2)c(O)cc1O` , can you help?
Response: 0.96

Request: Looking for the measured logD of `CC(C)c1cc(C(=O)N2Cc3ccc(OCCN(C)C)cc3C2)c(O)cc1O` , can you help?
Response: 2.4

Request: Looking for the measured logD of CC(C)c1cc(C(=O)N2Cc3ccc(CN4CCN(C)CC4)cc3C2)c(O)cc1O [ONALESPIB] , can you help?
Response: 2.7

Request: Looking for the measured logD of `CC(C)c1cc(C(=O)N2Cc3ccc(C4(O)CCN(C)CC4)cc3C2)c(O)cc1O` , can you help?
Response: 1.7

Request: Looking for the measured logD of `CC(C)c1cc(C(=O)N2Cc3ccc(NC4CCNCC4)cc3C2)c(O)cc1O` , can you help?
Response: 0.7

Request: Looking for the measured logD of `CC(C)c1cc(C(=O)N2Cc3ccc(NC4CCN(C)CC4)cc3C2)c(O)cc1O` , can you help?
Response: 1.7

Request: Looking for the measured logD of `CC(C)c1cc(C(=O)N2Cc3ccc(N4CCNCC4)cc3C2)c(O)cc1O` , can you help?
Response: 1.6

Query molecule follows.
Request: Looking for the measured logD of `CC(C)c1cc(C(=O)N2Cc3ccc(N4CCN(C)CC4)cc3C2)c(O)cc1O` , can you help?
Response: 2.98

###

# Assay Method Text: Drug level in human HCT116 cells xenografted nude BALB/c mouse tumor at 40 mg/kg, iv after 24 hrs
# Assay type: ADME, organism-based, Neoplasm, HCT-116
# Design: dose 40 mg/kg, route intravenous
# Test Parameters: read-out: Drug uptake
Quantity: concentration at 24 h (µM)
Quick reminder: number only, in µM, skip the unit.

Request: Looking for the measured concentration at 24 h of `CC(C)c1cc(C(=O)N2Cc3ccc(N4CCN(C)CC4)cc3C2)c(O)cc1O` , can you help?
Response: 6.5

###

# Assay Method Text: Dissociation constant, pKa of the compound
# Type: physicochemical
Where pKa equals or exceeds 9, the correct label is 1; where it does not, the label is -1.

Below are worked cases with known answers.
Request: Does the reported pKa for `CC(C)c1cc(C(=O)N2Cc3ccc(OCCCN)cc3C2)c(O)cc1O` fall at or above the 9 mark?
Response: 1

Request: Does the reported pKa for `CC(C)c1cc(C(=O)N2Cc3ccc(C(=O)N4CCN(C)CC4)cc3C2)c(O)cc1O` fall at or above the 9 mark?
Response: -1

Request: Does the reported pKa for `CC(C)c1cc(C(=O)N2Cc3ccc(N4CCNCC4)cc3C2)c(O)cc1O` fall at or above the 9 mark?
Response: -1

Request: Does the reported pKa for `CC(C)c1cc(C(=O)N2Cc3ccc(OCCCN4CCOCC4)cc3C2)c(O)cc1O` fall at or above the 9 mark?
Response: -1

Request: Does the reported pKa for `CC(C)c1cc(C(=O)N2Cc3ccc(NC4CCNCC4)cc3C2)c(O)cc1O` fall at or above the 9 mark?
Response: 1

Request: Does the reported pKa for `CC(C)c1cc(C(=O)N2Cc3ccc(C4(O)CCN(C)CC4)cc3C2)c(O)cc1O` fall at or above the 9 mark?
Response: 1

Request: Does the reported pKa for `CC(C)c1cc(C(=O)N2Cc3ccc(N4CCN(C)CC4)cc3C2)c(O)cc1O` fall at or above the 9 mark?
Response: -1

Request: Does the reported pKa for `CC(C)c1cc(C(=O)N2Cc3ccc(OCCN(C)C)cc3C2)c(O)cc1O` fall at or above the 9 mark?
Response: -1

Consider the record given below.
Request: Does the reported pKa for `CC(C)c1cc(C(=O)N2Cc3ccc(N4CCOCC4)cc3C2)c(O)cc1O` fall at or above the 9 mark?
Response: -1

###

# Assay Method Text: Solubility of the compound in phosphate buffer at 15 mg at pH 5.5
# Assay type: physicochemical
Recorded solubility by entry

Request: Looking for the measured solubility of `CC(C)c1cc(C(=O)N2Cc3ccc(NC4CCN(C)CC4)cc3C2)c(O)cc1O` , can you help?
Response: < 3 mg/mL

Request: Looking for the measured solubility of `CC(C)c1cc(C(=O)N2Cc3ccc(C4(O)CCN(C)CC4)cc3C2)c(O)cc1O` , can you help?
Response: > 30 mg/mL

Query compound follows.
Request: Looking for the measured solubility of `CC(C)c1cc(C(=O)N2Cc3ccc(CN4CCN(C)CC4)cc3C2)c(O)cc1O` , can you help?
Response: > 30 mg/mL

###

# Assay Method Text: Protein binding in mouse plasma after 6 hrs by equilibrium dialysis method
# Format: ADME, cell-free
# Test Parameters: read-out: PPB (converted)
Quantity: fraction unbound at 6 h
Number, no unit, nothing else.

Request: Looking for the measured fraction unbound at 6 h of `CC(C)c1cc(C(=O)N2Cc3ccc(C(=O)N4CCN(C)CC4)cc3C2)c(O)cc1O` , can you help?
Response: 0.29

Query compound follows.
Request: Looking for the measured fraction unbound at 6 h of `CC(C)c1cc(C(=O)N2Cc3ccc(CN4CCN(C)CC4)cc3C2)c(O)cc1O` , can you help?
Response: 0.09

###

# Assay Method Text: Solubility of the compound in acetate buffer at 15 mg at pH 5.5
# Format: physicochemical
Quantity: solubility

Request: Looking for the measured solubility of `CC(C)c1cc(C(=O)N2Cc3ccc(NC4CCN(C)CC4)cc3C2)c(O)cc1O` , can you help?
Response: < 3 mg/mL

Request: Looking for the measured solubility of `CC(C)c1cc(C(=O)N2Cc3ccc(CN4CCN(C)CC4)cc3C2)c(O)cc1O` , can you help?
Response: > 30 mg/mL

Further cases:
Request: Looking for the measured solubility of `CC(C)c1cc(C(=O)N2Cc3ccc(C4(O)CCN(C)CC4)cc3C2)c(O)cc1O` , can you help?
Response: > 30 mg/mL

###

# Assay Method Text: Half life in BALB/c mouse plasma at 2 to 10 mg/kg, iv
# Format: ADME, organism-based
# Set-up: dose 2-10 mg/kg, route intravenous
Quantity: half-life (min)
Quick reminder: number only, in min, skip the unit.

Request: Looking for the measured half-life of CC(C)c1cc(C(=O)N2Cc3ccc(CN4CCN(C)CC4)cc3C2)c(O)cc1O [ONALESPIB] , can you help?
Response: 54
